Test system: L1210 leukemia ip in BDF1 mice, survival T/C
Experiment: NCI In Vivo Anticancer Drug Screen. Data for tumor model L1210 Leukemia (intraperitoneal) in B6D2F1 (BDF1) mice
Conditions: endpoint: mean survival time; dose: 200.0 mg/kg/injection; schedule: Q01DX001 (ip); vehicle: saline; higher = longer survival
Toxic doses and inconclusive results are not listed.
Measured T/C, listed per entry.

// worked examples, T/C included
Query block: Query the reported T/C for L1210 leukemia ip in BDF1 mice, survival T/C; item: NC(N)=NC(N)=NCCc1ccccc1
Result block: 94 % of control

Query block: Fill in the recorded T/C for this molecule, with L1210 leukemia ip in BDF1 mice, survival T/C as test system: Cc1ccc(C(CO)(CO)OC(CO)(CO)c2ccc(C)c(C)c2)cc1C
Result block: 105 % of control

Query block: L1210 leukemia ip in BDF1 mice, survival T/C / T/C / OCC(O)C(O)C(O)CC(c1ccc(Cl)cc1)c1ccc(Cl)cc1 (stereo not given) : value?
Result block: 106 % of control

More entries:
Query block: Report T/C for c1ccc2c(c1)ccc1cc3cnccc3cc12 tested on L1210 leukemia ip in BDF1 mice, survival T/C.
Result block: 103 % of control

Query block: Query for L1210 leukemia ip in BDF1 mice, survival T/C: what T/C does the record show for CC(C)(C)NCc1cc(C(C)(C)C)cc(-c2ccccc2)c1O ?
Result block: 101 % of control

Query block: Under L1210 leukemia ip in BDF1 mice, survival T/C: T/C value of CC(C)CCOC(OCCC(C)C)OCCC(C)C ?
Result block: 97 % of control

Query block: Could you share what T/C was measured for Cc1ccccc1/C=N/NC(=O)c1cccc2ccccc12 , tested on L1210 leukemia ip in BDF1 mice, survival T/C?
Result block: 100 % of control

Query block: Recorded T/C for ClC(Cl)(NC1CCCCC1)NC1CCCCC1 with L1210 leukemia ip in BDF1 mice, survival T/C, please?
Result block: 91 % of control

Query block: Give L1210 leukemia ip in BDF1 mice, survival T/C T/C for c1ccc(C2(c3ccccc3)CC([P+](c3ccccc3)(c3ccccc3)c3ccccc3)=NN2)cc1
Result block: 115 % of control

Query block: Give recorded T/C with L1210 leukemia ip in BDF1 mice, survival T/C for the following molecule: Nc1cc(=O)[nH]c(=S)n1-c1ccc(I)cc1
Result block: 102 % of control

Query block: Lab request: please report T/C under test system L1210 leukemia ip in BDF1 mice, survival T/C for COc1cc2c(cc1OC)C13CCN4CC5=CCOC6CC(=O)N2C1C6C5CC43O (stereo not given)
Result block: 86 % of control

Query block: // lookup T/C | system=L1210 leukemia ip in BDF1 mice, survival T/C | key= OCC1OC(n2c(Cl)nc3ccccc32)C(O)C1O (stereo not given)
Result block: 103 % of control

Query block: T/C of CC(=O)OCC(OC(C)=O)C(OC(C)=O)C(/C=C/N=[N+]([O-])c1ccccc1)OC(C)=O (stereo not given) on L1210 leukemia ip in BDF1 mice, survival T/C?
Result block: 100 % of control

Query block: Param readout = T/C; param system = L1210 leukemia ip in BDF1 mice, survival T/C; param query = CCCCC(=O)N/N=C/c1ccc(N(C)C)cc1 ; response: value
Result block: 87 % of control

Query block: Requested read-out T/C, target or system L1210 leukemia ip in BDF1 mice, survival T/C, entry NC(=S)N/N=C\c1cc2ccccc2c2ccccc12
Result block: 95 % of control

====

Test system: L1210 leukemia ip in BDF1 mice, survival T/C
Assay: NCI In Vivo Anticancer Drug Screen. Data for tumor model L1210 Leukemia (intraperitoneal) in B6D2F1 (BDF1) mice
Settings: endpoint: mean survival time; dose: 400.0 mg/kg/injection; schedule: Q01DX001 (ip); vehicle: carboxymethylcellulose (CMC); higher = longer survival
Toxic doses and inconclusive results are not listed.
quantity-name: T/C

Query block: Requested read-out: T/C. Entry: CC/C(=C(/CC)c1ccc(OP(=O)(O)O)cc1)c1ccc(OP(=O)(O)O)cc1
Result block: 106 % of control

Query block: T/C lookup needed for Nc1cccc2c1-c1ccccc1/C2=N\O , thanks.
Result block: 103 % of control

Query block: Entry under review: OCCCc1cc(Br)ccc1O . Reported T/C?
Result block: 92 % of control

====

compounds and their reported T/C
Test system: L1210 leukemia ip in BDF1 mice, survival T/C
Experiment: NCI In Vivo Anticancer Drug Screen. Data for tumor model L1210 Leukemia (intraperitoneal) in B6D2F1 (BDF1) mice
Conditions: endpoint: mean survival time; dose: 200.0 mg/kg/injection; schedule: Q01DX009 (ip); vehicle: Klucel (hydroxypropylcellulose) (HPC); higher = longer survival
Toxic doses and inconclusive results are not listed.

Below, 8 compounds whose answers are already recorded.
Query block: What T/C value was documented for this compound, S=C(NCc1ccco1)Nc1ccccc1Cl ?
Result block: 93 % of control

Query block: Field request: T/C | item: CCC(C)c1cc([N+](=O)[O-])cc([N+](=O)[O-])c1SC(=O)N(C)C (configuration not stated)
Result block: 97 % of control

Query block: Field request: T/C | item: O=c1cc(-c2ccccc2)cc(-c2ccccc2)o1
Result block: 96 % of control

Query block: GET /values?readout=T/C&item= CSc1ccc(C(=O)c2ccc(SC)cc2)cc1
Result block: 98 % of control

Query block: Return reported T/C; argument: CC(=O)NN(c1ccccc1)c1ccccc1
Result block: 96 % of control

Query block: What does the data say about its T/C? Entry: CCCCCCCCCC(O)CC (configuration not stated)
Result block: 102 % of control

Query block: Give its T/C value. Item: CSc1ccc(NC(=O)Nc2cccc(C)c2C)cc1
Result block: 95 % of control

Query block: Requested field: T/C. Item: CCc1ccccc1NC(=O)Nc1ccc(CCO)cc1
Result block: 105 % of control

Continuing:
Query block: Requested read-out: T/C. Entry: CCN(CC)C(=O)c1ccc([N+](=O)[O-])cc1
Result block: 95 % of control

Query block: Requested field: T/C. Item: Cc1cc(O)c(N=Nc2ccccc2)cc1C
Result block: 96 % of control

====

Property: T/C; scope: individual compounds
Tested on: L1210 leukemia ip in BDF1 mice, survival T/C
Test: NCI In Vivo Anticancer Drug Screen. Data for tumor model L1210 Leukemia (intraperitoneal) in B6D2F1 (BDF1) mice
Settings: endpoint: mean survival time; dose: 400.0 mg/kg/injection; schedule: Q04DX003 (ip); vehicle: Klucel (hydroxypropylcellulose) (HPC); higher = longer survival
Toxic doses and inconclusive results are not listed.

Query block: Name the recorded T/C for O=C(Nc1ccc(F)c(Cl)c1)Oc1ccc(OCc2ccccc2)cc1 .
Result block: 95 % of control

Query block: Endpoint output: T/C of O=C1NC(=O)C2(CCN(CCCSc3ccc(F)cc3)CC2)C(=O)N1 . Value?
Result block: 94 % of control

Query block: Quick one: T/C for CNc1ccccc1Cc1ccccc1 ?
Result block: 98 % of control

Query block: If you can, please state the reported T/C value of Nc1ccc(N)nc1 .
Result block: 98 % of control

Query block: Requested read-out: T/C. Entry: COc1ccc(C)cc1CN1NC(=O)CC1=N
Result block: 102 % of control

====

Listed below: T/C values for each entry.
Tested on: L1210 leukemia ip in BDF1 mice, survival T/C
Experiment: NCI In Vivo Anticancer Drug Screen. Data for tumor model L1210 Leukemia (intraperitoneal) in B6D2F1 (BDF1) mice
Conditions: endpoint: mean survival time; dose: 200.0 mg/kg/injection; schedule: Q01DX009 (ip); vehicle: saline with Tween-80; higher = longer survival
Toxic doses and inconclusive results are not listed.

Query block: For the compound shown here, O=C(O)c1ccccc1C(=O)NNC(=O)c1ccccc1C(=O)O , give the reported T/C.
Result block: 94 % of control

New cases:
Query block: Data request, read-out T/C, for CN(C)C(=O)C1CCC1
Result block: 105 % of control

Query block: Given the compound CC(=O)c1cccc(C#N)c1 , what is its reported T/C?
Result block: 97 % of control

Query block: Recorded T/C of C1=CC2C3CC(OCCOC4CC5CC4C4CC=CC54)C(C3)C2C1 (configuration not stated) , please.
Result block: 93 % of control

====

Test system: L1210 leukemia ip in BDF1 mice, survival T/C
Assay: NCI In Vivo Anticancer Drug Screen. Data for tumor model L1210 Leukemia (intraperitoneal) in B6D2F1 (BDF1) mice
Conditions: endpoint: mean survival time; dose: 100.0 mg/kg/injection; schedule: Q01DX009 (ip); vehicle: saline; higher = longer survival
Toxic doses and inconclusive results are not listed.
quantity-name: T/C

Please review the following examples before continuing.
Query block: Form field: reported T/C of CCCCCCCCCCC/C=N/NC(=O)c1ccc[n+](C)c1
Result block: 108 % of control

Query block: I would be grateful if you could share the reported T/C for O=C(O)c1ccnc(C(=O)O)c1 .
Result block: 89 % of control

Query block: # T/C lookup, item O=C1CCC(N2C(=O)c3ccccc3C2=O)C(=O)N1 (stereo unspecified)
Result block: 96 % of control

Query block: Recorded T/C of CC(=O)c1c(C)cc(C(C)(C)C)cc1C , please.
Result block: 97 % of control

Query block: Fill in: T/C of OCCN1CCN(Cc2cccc3ccccc23)CC1 is ___
Result block: 102 % of control

New cases:
Query block: Fill in the blank: the reported T/C of C=CCc1cn(C2CC(O)C(CO)O2)c(=O)[nH]c1=O (stereo unspecified) is ____.
Result block: 98 % of control

Query block: T/C for COC(=O)C(=NO)C(=O)OC ?
Result block: 98 % of control

Query block: // T/C lookup, key: C1CCC(=[N+]2CCCC2)CC1
Result block: 93 % of control

Query block: Item under review: C/C=C\C(=O)OC.[W] . Reported T/C?
Result block: 105 % of control

Query block: What does the record list as T/C for Oc1cc2c(cc1O)C1c3ccc(O)c(O)c3OCC1(O)C2 (stereo unspecified) ?
Result block: 102 % of control

Query block: Recorded T/C for C1CCCC(=[N+]2CCCC2)CCC1 , please?
Result block: 100 % of control

Query block: Given the entry COC(=O)c1csc(-c2csc(CCN)n2)n1 , report its measured T/C.
Result block: 100 % of control

Query block: Entry under review: CCOC(=O)C(C)C1(O)CCCCC1 (stereo unspecified) . Reported T/C?
Result block: 98 % of control

Query block: Endpoint output: T/C of CC(=O)c1ccccc1-n1c(C)ccc1C . Value?
Result block: 95 % of control

Query block: // lookup T/C for Nc1cccc2[nH]cnc12
Result block: 98 % of control

Query block: Quick check: T/C of COCCCN=C(N)C(N)=NCCCOC ?
Result block: 99 % of control
